Hey, just so you know, these numbers are from patent US12661410B2.

Each item that follows carries a reported Emax.
- target_desc: RET(KD: 658-1114 G810R) (Homo sapiens, UniProt P07949, G810R)
- Construct: 658-1114; expressed in transfected cells; host or cells: 293T.165 (293T cells, generated in-house)
- protocol_description: HiBiT-Degradation, RET G810R degradation assay (Nano-Glo HiBiT Lytic), 293T.165 cells
- Format: cell-based
- test_parameters: 6.0 hours, % remaining protein, read-out: 293T.165 RET(KD: 658-1114 G810R) 6.0 hours (Emax)

molecule="CCC1(C(=O)NC(C)C)CCN(c2ccc(-c3nc(-c4cnn(C5CN(C(=O)CC6(O)CCN(c7ccc(NC8CCC(=O)NC8=O)cc7F)CC6)C5)c4)cn4ncc(C#N)c34)cn2)CC1 (stereo not drawn) [Compound 184]" observed_measurement="< 30%"

// Emax lookup, key: CCC1(C(=O)NC(C)C)CCN(c2ccc(-c3cc(-c4cnn(C5CCN(C(=O)CN6CCC(c7ccc8c(N9CCC(=O)NC9=O)nn(C)c8c7)CC6)CC5)c4)cn4ncc(C#N)c34)cn2)CC1 [Compound 63]
< 30%

Same lookup for N#Cc1cnn2cc(-c3ccc(N4CCN(C(=O)CN5CCC(c6ccc(NC7CCC(=O)NC7=O)cc6)CC5)CC4)cc3)cc(-c3ccc(N4CCN(CCc5ccccn5)CC4)nc3)c12 (stereo not drawn) [Compound 18] , please.
< 30%

----------
Each item that follows carries a reported DC50.
- target_desc: RET(KD: 658-1114 G810R) (Homo sapiens, UniProt P07949, G810R)
- Construct: 658-1114; expressed in transfected cells; host or cells: 293T.165 (293T cells, generated in-house)
- Sequence (P07949 658-1114 G810R): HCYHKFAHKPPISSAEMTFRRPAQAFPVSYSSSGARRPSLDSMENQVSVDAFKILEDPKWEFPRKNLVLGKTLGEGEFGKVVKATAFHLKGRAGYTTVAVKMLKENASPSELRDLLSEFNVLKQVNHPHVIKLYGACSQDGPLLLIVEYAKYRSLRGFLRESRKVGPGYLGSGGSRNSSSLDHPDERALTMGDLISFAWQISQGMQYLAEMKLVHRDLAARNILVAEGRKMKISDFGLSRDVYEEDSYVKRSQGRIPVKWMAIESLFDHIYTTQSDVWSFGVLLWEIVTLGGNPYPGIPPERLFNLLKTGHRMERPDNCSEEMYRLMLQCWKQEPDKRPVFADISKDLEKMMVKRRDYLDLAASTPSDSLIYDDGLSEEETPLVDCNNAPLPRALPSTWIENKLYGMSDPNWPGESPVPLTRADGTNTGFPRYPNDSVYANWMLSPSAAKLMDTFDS
- protocol_description: HiBiT-Degradation, RET G810R degradation assay (Nano-Glo HiBiT Lytic), 293T.165 cells
- Type: cell-based
- test_parameters: 6.0 hours, half-maximal degradation concentration, read-out: 293T.165 RET(KD: 658-1114 G810R) 6.0 hours (DC50)

Examples with their reported DC50 follow.
compound="Cn1nc(N2CCC(=O)NC2=O)c2ccc(C3CCN(CC(=O)N4CCC(n5cc(-c6cc(-c7ccc(N8CCN(Cc9ccccn9)CC8)nc7)c7c(C#N)cnn7c6)cn5)CC4)CC3)cc21 [Compound 13]" target_desc="RET(KD: 658-1114 G810R) (Homo sapiens, UniProt P07949, G810R)" endpoint_name=DC50 observed_measurement="< 100 nM"
compound="CCC1(NC(=O)c2ncccc2Cl)CCN(c2ccc(-c3nc(-c4cnn([C@H]5CC[C@@H](N6CCN(c7ccc8c(N9CCC(=O)NC9=O)nn(C)c8c7F)CC6)CC5)c4)cn4ncc(C#N)c34)cn2)CC1 (single isomer, unassigned) [Compound 170]" target_desc="RET(KD: 658-1114 G810R) (Homo sapiens, UniProt P07949, G810R)" endpoint_name=DC50 observed_measurement="< 100 nM"
compound="CCC1(c2ncccn2)CCN(c2ccc(-c3nc(-c4cnn([C@H]5CC[C@H](N6CCC(c7ccc(N[C@H]8CCC(=O)NC8=O)cc7F)CC6)CC5)c4)cn4ncc(C#N)c34)cn2)CC1 (single isomer, unassigned) [Compound 139]" target_desc="RET(KD: 658-1114 G810R) (Homo sapiens, UniProt P07949, G810R)" endpoint_name=DC50 observed_measurement="< 50 nM"

Now, please, on to the next compound.
// DC50 lookup, key: N#Cc1cnn2cc(-c3cnn(C4CCN(C(=O)CC5(O)CCN(c6ccc(NC7CCC(=O)NC7=O)cc6F)CC5)CC4)c3)cc(-c3ccc(N4CCC(c5cccc(O)c5)CC4)nc3)c12 (stereo not shown) [Compound 198]
< 50 nM
